The values you see were collected from ChEMBL document CHEMBL1143584.

Procedure Text: Half-life determined in fetal calf serum
Format: ADME, Bos taurus
Condition Notes: cattle
Listed next: entries and their corresponding half-life.

Example results:
compound=O=c1ccn([C@H]2CC[C@@H](COP(=O)(O)OP(=O)(O)OP(=O)(O)O)O2)c(=O)[nH]1 property_label=half-life measured_value="60 min"
compound="Cc1cn([C@H]2C[C@H](N=[N+]=[N-])[C@@H](CO[P@](=O)(O)O[P@](=O)(O)OP(=O)(O)O)O2)c(=O)[nH]c1=O [ZIDOVUDINE TRIPHOSPHATE]" property_label=half-life measured_value="120 min"
compound="BP(=O)(OC[C@@H]1CC[C@H](n2ccc(=O)[nH]c2=O)O1)OP(=O)(O)C(F)(F)P(=O)(O)O (stereo partly drawn)" property_label=half-life measured_value="> 2880 min"

Find the measured half-life of BP(=O)(OC[C@H]1O[C@@H](n2cc(C)c(=O)[nH]c2=O)C[C@@H]1N=[N+]=[N-])OP(=O)(O)C(F)(F)P(=O)(O)O (stereo partly drawn) and report it.
> 2880 min

State, in one line, measured half-life of BP(=O)(OC[C@@H]1CC[C@H](n2ccc(N)nc2=O)O1)OP(=O)(O)C(F)(F)P(=O)(O)O (stereo partly drawn)
> 2880 min

// Input: BP(=O)(OC[C@H]1O[C@@H](n2ccc(N)nc2=O)CS1)OP(=O)(O)C(F)(F)P(=O)(O)O (mixture of isomers) . Output its half-life only.
> 2880 min

Return half-life (reported value) for this compound: Nc1ccn([C@H]2CC[C@@H](COP(=O)(O)OP(=O)(O)OP(=O)(O)O)O2)c(=O)n1 [DDCTP]
48 min

Please give the documented half-life of Nc1ccn([C@@H]2CS[C@H](COP(=O)(O)OP(=O)(O)OP(=O)(O)O)O2)c(=O)n1 [LAMIVUDINE TRIPHOSPHATE]
180 min

###

Measured Target: Human immunodeficiency virus type 1 reverse transcriptase (Human immunodeficiency virus 1)
pKi: −log10 of the molar value.
Give MET when the value for pKi is at least 7. Give NOT MET when it is less.

See these solved cases before continuing.
molecule=Nc1nc(=O)n([C@H]2CS[C@@H](COP(=O)(O)OP(=O)(O)OP(=O)(O)O)O2)cc1F label_class="NOT MET"
molecule="BP(=O)(OC[C@H]1O[C@@H](n2cc(C)c(=O)[nH]c2=O)C[C@@H]1F)OP(=O)(O)C(F)(F)P(=O)(O)O (stereo partly drawn)" label_class=MET
molecule=NC1=NCc2c(ncn2[C@H]2CC[C@@H](COP(=O)(O)OP(=O)(O)OP(=O)(O)O)O2)C1=O label_class=MET

Record Nc1ccn([C@H]2CC[C@@H](CO)O2)c(=O)n1 [ZALCITABINE] ; criterion: pKi no lower than 7. Met?
MET

Reported pKi at or above 7? "O=c1ccn([C@H]2CC[C@@H](COP(=O)(O)OP(=O)(O)OP(=O)(O)O)O2)c(=O)[nH]1"
NOT MET

Does the molecule BP(=O)(OC[C@@H]1CC[C@H](n2cc(C)c(=O)[nH]c2=O)O1)OP(=O)(O)C(F)(F)P(=O)(O)O (mixture of isomers) have recorded pKi that is 7 or more?
NOT MET

Reported pKi reaches at least 7 for BP(=O)(OC[C@H]1O[C@@H](n2ccc(N)nc2=O)CS1)OP(=O)(O)C(F)(F)P(=O)(O)O (mixture of isomers) ?
NOT MET
